# experimental-target: T1, hPRLR.mFc (soluble dimeric human PRLR) (Homo sapiens, UniProt P16471)
# T1 construct: dimeric (hPRLR.mFc)
# T1 sequence (P16471 with tags, fused parts or gaps): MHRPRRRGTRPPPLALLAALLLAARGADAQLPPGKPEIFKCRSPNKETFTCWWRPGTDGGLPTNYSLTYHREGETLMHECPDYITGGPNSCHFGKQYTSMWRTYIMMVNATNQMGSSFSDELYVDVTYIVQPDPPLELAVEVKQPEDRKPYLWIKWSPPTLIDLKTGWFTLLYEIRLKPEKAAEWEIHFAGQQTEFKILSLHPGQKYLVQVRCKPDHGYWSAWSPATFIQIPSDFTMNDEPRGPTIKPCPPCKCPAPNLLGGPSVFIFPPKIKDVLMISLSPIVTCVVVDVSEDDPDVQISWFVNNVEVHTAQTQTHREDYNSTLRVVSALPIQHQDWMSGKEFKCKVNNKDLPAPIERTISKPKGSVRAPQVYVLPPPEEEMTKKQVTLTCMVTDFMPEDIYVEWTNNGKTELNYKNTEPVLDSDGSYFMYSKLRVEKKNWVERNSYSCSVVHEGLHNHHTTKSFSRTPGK
# assay-overview: Surface plasmon resonance (Biacore T200), mAb-capture format
# Assay type: binding
# condition-details: 37° C., antibody-capture format, analyte hPRLR.mFc
measured-property: T½
Your reply should be a number followed by the unit it is expressed in.

molecule	measured-property	measured-value
H1H6953N: human IgG1 Fc form of H1M6953N; anti-PRLR; HCVR/LCVR SEQ ID NOs 274/282 (antibody, V domains shown, human IgG1 Fc) VH: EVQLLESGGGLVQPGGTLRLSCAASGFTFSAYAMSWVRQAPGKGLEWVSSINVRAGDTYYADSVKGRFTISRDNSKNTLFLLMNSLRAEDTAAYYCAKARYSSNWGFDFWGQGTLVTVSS VL: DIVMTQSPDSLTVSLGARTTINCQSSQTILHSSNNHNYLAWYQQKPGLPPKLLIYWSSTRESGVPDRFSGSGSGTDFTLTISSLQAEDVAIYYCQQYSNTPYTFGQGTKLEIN	T½	1.13 h

Given item H1H6782P: anti-PRLR antibody, human IgG1 Fc; HCVR/LCVR SEQ ID NOs 66/74; non-blocking (antibody, V domains shown, human IgG1 Fc) VH: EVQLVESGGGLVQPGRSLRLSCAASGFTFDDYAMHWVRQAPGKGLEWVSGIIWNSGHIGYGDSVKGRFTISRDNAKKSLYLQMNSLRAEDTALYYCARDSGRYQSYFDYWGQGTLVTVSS VL: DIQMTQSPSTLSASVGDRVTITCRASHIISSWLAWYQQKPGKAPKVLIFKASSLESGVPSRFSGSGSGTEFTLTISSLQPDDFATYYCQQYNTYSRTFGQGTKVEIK , the value recorded as its T½ is 1.48 h

Given item H1H6762P: anti-PRLR antibody, human IgG1 Fc; HCVR/LCVR SEQ ID NOs 2/10 (antibody, V domains shown, human IgG1 Fc) VH: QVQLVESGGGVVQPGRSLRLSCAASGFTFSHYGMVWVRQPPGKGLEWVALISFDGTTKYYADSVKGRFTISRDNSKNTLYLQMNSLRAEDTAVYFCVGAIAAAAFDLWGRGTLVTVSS VL: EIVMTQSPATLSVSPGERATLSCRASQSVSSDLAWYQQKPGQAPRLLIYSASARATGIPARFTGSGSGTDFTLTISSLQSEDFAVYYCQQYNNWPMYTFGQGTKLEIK , the value recorded as its T½ is 1.87 h

Given item H1H6785P: anti-PRLR antibody, human IgG1 Fc; HCVR/LCVR SEQ ID NOs 98/106 (antibody, V domains shown, human IgG1 Fc) VH: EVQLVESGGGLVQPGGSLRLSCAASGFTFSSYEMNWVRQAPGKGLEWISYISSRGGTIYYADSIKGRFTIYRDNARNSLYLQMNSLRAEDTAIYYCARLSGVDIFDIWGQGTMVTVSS VL: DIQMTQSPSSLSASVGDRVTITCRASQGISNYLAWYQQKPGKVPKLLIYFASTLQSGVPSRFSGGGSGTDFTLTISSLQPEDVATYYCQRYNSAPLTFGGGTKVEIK , the value recorded as its T½ is 1.65 h

Given item H1H6958N2: human IgG1 Fc form of H2M6958N2; anti-PRLR, receptor blocking; HCVR/LCVR SEQ ID NOs 290/298 (antibody, V domains shown, human IgG1 Fc) VH: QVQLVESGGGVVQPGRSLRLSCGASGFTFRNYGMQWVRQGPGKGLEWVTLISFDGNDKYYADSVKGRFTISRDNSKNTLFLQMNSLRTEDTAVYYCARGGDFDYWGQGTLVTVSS VL: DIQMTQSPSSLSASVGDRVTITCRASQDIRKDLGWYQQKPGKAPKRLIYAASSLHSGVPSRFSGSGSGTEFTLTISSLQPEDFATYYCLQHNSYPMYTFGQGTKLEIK , the value recorded as its T½ is 1.39 h
